- Tested on: ACHN renal
- assay.remarks: NCI-60 one-dose screen, 48 h (100 = growth as untreated, 0 = no growth, -100 = all killed)
- applied.conditions: 10 µM unless noted
Compounds without any hit were thinned out: in the full panel of roughly 83,000, 20% have a hit.
Label t when growth >= 80%; otherwise f.

{"compound": "Cc1cc(O)c(C2=NN(c3ccc(S(N)(=O)=O)cc3)C(/C=C/c3ccccc3)C2)cc1Cl (stereo not given)", "answer.label": "f"}

Could you please find out whether Fc1cc2c(cc1Cl)N(c1ncnc3ccc(-c4cnc5cnccn45)cc13)CC2 has growth that meets 80% or exceeds it? f

Could you please find out whether COc1ccc(C2CC(c3ccc(Nc4ccnc5cc(Cl)ccc45)cc3)=NN2C=O)cc1 (stereo not given) has growth that meets 80% or exceeds it? f

Could you please find out whether FC(F)(F)c1cc(Nc2ccc3c(OCCCN4CCOCC4)cccc3n2)ccc1Cl has growth that meets 80% or exceeds it? f

Could you please find out whether COc1cc(C2CC(c3ccc(SC)cc3)=NN2C(C)=O)cc(OC)c1OC (stereo not given) has growth that meets 80% or exceeds it? t

Could you please find out whether CCN1C(=O)N(CC)C2Nn3c(s/c(=C4\C(=O)N(CC(C)C)c5ccccc54)c3=O)=NC21 (stereo not given) has growth that meets 80% or exceeds it? f

---

compounds and their reported growth
- Tested on: NCI-H322M lung
- assay.remarks: NCI-60 one-dose screen, 48 h (100 = growth as untreated, 0 = no growth, -100 = all killed)
- applied.conditions: 10 µM unless noted
Compounds without any hit were thinned out: in the full panel of roughly 83,000, 20% have a hit. Calls of active or inactive are those of the source. Rule for the calls: active = growth percent below 10; inactive = the rest.

Here is how some compounds turned out for growth.
{"compound": "COc1ccc2cc(C(C)C(=O)Nc3ccc(-c4n[nH]c(=S)n4C4CCCCC4)cc3)ccc2c1 (stereo not given)", "growth": "114% (inactive)"}
{"compound": "COc1ccc(CNC(=O)C(=O)[C@H](Cc2ccccc2)NC(=O)c2[nH]c3ccccc3c(=O)c2C)cc1", "growth": "96.8% (inactive)"}
{"compound": "COc1ccc(OC)c(/C=C/C(=O)N/N=C/c2ccc(Cl)cc2)c1", "growth": "41.3% (inactive)"}
{"compound": "CCOC(=O)Cn1c(=O)c2c(c3ccccc3n2C)n2nnc(-c3ccccc3)c12", "growth": "115% (inactive)"}
{"compound": "COc1cccc2c(=O)c3c(sc12)c(NCCCN)nc1ccccc13", "growth": "64.4% (inactive)"}
{"compound": "C[N+]1=C(/C=C/c2ccc(O)c3ncccc23)C(C)(C)c2ccccc21", "growth": "97.4% (inactive)"}
{"compound": "NS(=O)(=O)c1ccc(-n2nc(-c3ccc(Cl)cc3)c3ccccc3c2=O)cc1", "growth": "148% (inactive)"}
{"compound": "Cc1ccc(-c2nc(N3CCN(C(=O)c4ccc(OC(F)(F)F)cc4)CC3)c3ccccc3n2)cc1", "growth": "93% (inactive)"}
{"compound": "COc1c(N2CC3CCCN(C(C)=O)C3C2)c(F)cc2c(=O)c(C(=O)N[C@H]3C(O)[C@@H](O)C(CO)O[C@H]3O)cn(C3CC3)c12 (stereo not given in full)", "growth": "106% (inactive)"}
{"compound": "COc1ccc([C@H]2c3cc(OC)c(OC)cc3C=C(C=O)C2CO)cc1OC (stereo not given in full)", "growth": "97.8% (inactive)"}

Look up growth: CN(C)CCN1CCN(c2ncccc2C2Nc3ccccc3-n3cccc32)CC1 (stereo not given) 102% (inactive)

Look up growth: COc1ccc(-c2csc(NC(=O)N3CCN(c4cc5c(cc4F)c(=O)c(C(=O)O)cn5C4CC4)CC3)n2)cc1 7.07% (active)

Look up growth: CCc1ccc(Oc2c(-c3ccc(OCc4ccc(Cl)cc4)cc3O)nn(C)c2C(F)(F)F)cc1 13.6% (inactive)
